# Tested system: MC1-R (B-16 mouse melanoma cells) (Mus musculus)
# Construct: B-16 mouse melanoma cells (containing MC1-R); endogenous in cells; host or cells: B-16 mouse melanoma cells
# Sequence (Q01727 whole entry): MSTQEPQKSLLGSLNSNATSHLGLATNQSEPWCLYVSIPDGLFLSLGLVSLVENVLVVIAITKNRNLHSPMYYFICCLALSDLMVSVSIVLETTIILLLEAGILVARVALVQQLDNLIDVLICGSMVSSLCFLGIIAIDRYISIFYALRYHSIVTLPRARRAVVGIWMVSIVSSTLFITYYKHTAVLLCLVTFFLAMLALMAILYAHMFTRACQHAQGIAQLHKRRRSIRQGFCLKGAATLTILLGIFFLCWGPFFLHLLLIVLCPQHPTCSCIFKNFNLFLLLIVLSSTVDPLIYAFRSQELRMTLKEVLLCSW
# Test description: cAMP assay for agonist/antagonist status, MC1-R
# Format: cell-based
Measured quantity: agonist/antagonist status as to MC1-R

>>> assay_value("[2H]N[C@@H](Cc1cnc[nH]1)C(=O)N[C@@H](Cc1ccccc1)C(=O)N1C2CC[C@H](COc3ccc4ccccc4c3)N2C(=O)[C@@H]1CCCCN (some centres unmarked) [Example 180]")
"agonist"
>>> assay_value("N=C(N)NCCC[C@H]1C(=O)N2C(CC[C@@H]2COc2ccc3ccccc3c2)N1C(=O)[C@@H](Cc1ccc(Cl)cc1Cl)NC(=O)[C@@H]1C[C@@H](OCc2ccccc2)CN1 (some centres unmarked) [Example 113]")
"agonist"
>>> assay_value("NCCCC[C@H]1C(=O)N(CCc2ccc3ccccc3c2)CCN1C(=O)[C@@H](Cc1ccc(Cl)cc1Cl)NCCOCc1ccccc1 [Example 40]")
"antagonist"
>>> assay_value("NCCCC[C@H]1C(=O)N(CCc2ccc3ccccc3c2)CCN1C(=O)[C@@H](Cc1ccc(Cl)cc1Cl)NC(=O)CCc1ccccc1 [Example 36]")
"agonist"
>>> assay_value("NCCCC[C@H]1C(=O)N(CCc2ccc3ccccc3c2)CCN1C(=O)[C@@H](Cc1ccc(Cl)cc1Cl)NC(=O)[C@@H](N)COCc1ccccc1 [Example 22]")
"agonist"
>>> assay_value("NCCCC[C@H]1C(=O)N(CCc2ccc3ccccc3c2)CCN1C(=O)[C@@H](Cc1ccc(Cl)cc1Cl)NCc1ccc(-c2ccccc2)cc1 [Example 39]")
"antagonist"
>>> assay_value("NCCCC[C@H]1C(=O)N(CCc2ccc3ccccc3c2)CCN1C(=O)[C@@H](Cc1ccc(Cl)cc1Cl)NC(=O)[C@H]1CC[C@@H](c2ccccc2)N1 [Example 27]")
"agonist"

====

# Tested system: MC3-R (Homo sapiens, UniProt P41968)
# Sequence (P41968 whole entry): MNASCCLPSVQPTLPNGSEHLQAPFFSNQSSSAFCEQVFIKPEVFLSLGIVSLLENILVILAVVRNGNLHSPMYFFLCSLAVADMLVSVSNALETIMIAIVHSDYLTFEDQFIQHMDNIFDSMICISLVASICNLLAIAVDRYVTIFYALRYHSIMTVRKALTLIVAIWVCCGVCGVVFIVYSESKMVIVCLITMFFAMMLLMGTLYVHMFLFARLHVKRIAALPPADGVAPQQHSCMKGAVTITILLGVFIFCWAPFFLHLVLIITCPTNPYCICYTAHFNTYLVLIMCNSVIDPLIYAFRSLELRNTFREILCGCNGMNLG
# Test description: Competitive inhibition binding assay, 125I-NDP-α-MSH, MC3-R
# Parameters: expressed in transfected cells
# Conditions used: 1 μM compound; inhibition of 125I-NDP-α-MSH binding; mean of triplicates; results less than 0% reported as 0%
Each entry below carries its reported Inhibition at 1 μM MC3-R.
Measured quantity: Inhibition at 1 μM MC3-R

>>> assay_value("NCCCC[C@H]1C(=O)N(CCc2ccc3ccccc3c2)CCN1C(=O)[C@@H](Cc1ccc(Cl)cc1Cl)NC(=O)CCc1ccccc1")
"22%"
>>> assay_value("NCCCC[C@H]1C(=O)N(CCOc2ccc3ccccc3c2)CCN1C(=O)[C@@H](Cc1ccc(Cl)cc1)NC(=O)[C@@H](N)COCc1ccccc1")
"21%"
>>> assay_value("CNC(=N)NCCC[C@H]1C(=O)N(CCc2ccc3ccccc3c2)CCN1C(=O)[C@H](N)Cc1ccc(Cl)cc1Cl")
"43%"
>>> assay_value("NCCCC[C@H]1C(=O)N2C(CC[C@@H]2COc2ccc3ccccc3c2)N1C(=O)[C@@H](Cc1ccccc1Cl)NC(=O)[C@@H]1C[C@H](Oc2ccccc2)CN1 (stereo partly drawn)")
"0%"
>>> assay_value("NCCCC[C@H]1C(=O)N2C(CC[C@@H]2COc2ccccc2)N1C(=O)[C@@H](Cc1ccc(Cl)cc1)NC(=O)[C@@H]1Cc2ccccc2CN1 (stereo partly drawn)")
"19%"
>>> assay_value("NCCCC[C@H]1C(=O)N2C(CC[C@@H]2COc2ccc3ccccc3c2)N1C(=O)[C@@H](Cc1ccccc1Cl)NC(=O)[C@@H]1NCCc2ccccc21 (stereo partly drawn)")
"0%"

====

# Tested system: UniProt:P32245
# Test description: Competitive inhibition binding assay, 125I-NDP-α-MSH, MC4-R
# Design: expressed in transfected cells
# Conditions used: 1 μM compound; inhibition of 125I-NDP-α-MSH binding; mean of triplicates; results less than 0% reported as 0%
Each entry below carries its reported Inhibition at 1 μM MC4-R.
Measured quantity: Inhibition at 1 μM MC4-R

>>> assay_value("NCCCCCCC(=O)N[C@@H](COCc1ccccc1)C(=O)N[C@H](Cc1ccc(Cl)cc1)C(=O)N1C2CC[C@H](COc3ccc4c(c3)CCCC4)N2C(=O)[C@@H]1CCCCN (stereo partly drawn) [Example 110]")
"96%"
>>> assay_value("NCCCC[C@H]1C(=O)N2C(CC[C@@H]2COc2ccc3ccccc3c2)N1C(=O)[C@@H](Cc1ccc(Cl)cc1)NC(=O)[C@@H](N)COCc1ccccc1 (stereo partly drawn) [Example 79]")
"81%"
>>> assay_value("N[C@H](Cc1ccc(Cl)cc1Cl)C(=O)N1CCN(CCc2ccc3ccccc3c2)C(=O)[C@@H]1CCCNc1ncccn1 [Example 68]")
"12%"
>>> assay_value("N=C(N)NCCCC[C@H]1C(=O)N(CCc2ccc3ccccc3c2)CCN1C(=O)[C@H](N)Cc1ccc2ccccc2c1 [Example 71]")
"97%"
>>> assay_value("[2H]N1CCCC1C(=O)NC(Cc1ccccc1)C(=O)N1CC(OCc2ccccc2)CC1C(=O)NCCCN (stereo not drawn) [Example 167]")
"8%"
>>> assay_value("CCCCCCC(=O)N[C@@H](Cc1cnc[nH]1)C(=O)N[C@H](Cc1ccccc1)C(=O)N1C[C@H](OCc2ccccc2)C[C@H]1C(=O)NCCCNC(=N)N [Example 154]")
"1%"

====

# Tested system: MC4-R (HEK-293 cells) (Homo sapiens, UniProt P32245)
# Construct: expressed in transfected cells; host or cells: HEK-293
# Sequence (P32245 whole entry): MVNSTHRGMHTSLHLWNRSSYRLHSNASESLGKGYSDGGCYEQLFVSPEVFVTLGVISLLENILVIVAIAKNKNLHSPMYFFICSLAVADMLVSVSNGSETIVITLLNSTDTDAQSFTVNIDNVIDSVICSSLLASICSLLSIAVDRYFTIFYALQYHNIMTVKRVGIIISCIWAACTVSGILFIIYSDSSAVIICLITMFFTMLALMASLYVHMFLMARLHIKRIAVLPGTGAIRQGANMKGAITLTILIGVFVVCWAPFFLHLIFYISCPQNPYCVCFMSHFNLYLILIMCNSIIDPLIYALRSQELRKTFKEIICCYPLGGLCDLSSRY
# Test description: cAMP assay for agonist/antagonist status, MC4-R
# Type: cell-based
Measured quantity: agonist/antagonist status as to MC4-R

>>> assay_value("NC(=O)NCCC[C@H]1C(=O)N(CCc2ccc3ccccc3c2)CCN1C(=O)[C@@H](Cc1ccc(Cl)cc1Cl)NC(=O)[C@@H](N)COCc1ccccc1 [Example 44]")
"agonist"
>>> assay_value("NCCCC[C@H]1C(=O)N(CCc2ccc3ccccc3c2)CCN1C(=O)[C@@H](Cc1ccc(Cl)cc1Cl)NC(=O)[C@@H](N)COCc1ccccc1 [Example 22]")
"agonist"

====

# Tested system: MC3-R (Homo sapiens, UniProt P41968)
# Test description: Competitive inhibition binding assay, 125I-NDP-α-MSH, MC3-R
# Design: expressed in transfected cells
# Conditions used: 1 μM compound; inhibition of 125I-NDP-α-MSH binding; mean of triplicates; results less than 0% reported as 0%
Measured quantity: Inhibition at 1 μM MC3-R (%)

>>> assay_value("N[C@@H](COCc1ccccc1)C(=O)N[C@H](Cc1ccc(Cl)cc1Cl)C(=O)N1CCN(CCc2ccc3ccccc3c2)C(=O)[C@@H]1CCCNS(N)(=O)=O [Example 46]")
12
>>> assay_value("NC(=O)NCC[C@H]1C(=O)N(CCc2ccc3ccccc3c2)CCN1C(=O)[C@H](N)Cc1ccc(Cl)cc1Cl [Example 57]")
0
>>> assay_value("NCCCC[C@H]1C(=O)N2C(CC[C@@H]2COc2ccc3ccccc3c2)N1C(=O)[C@@H](Cc1ccccc1Cl)NC(=O)[C@H]1NCCc2ccccc21 (stereo partly drawn) [Example 87]")
8
>>> assay_value("NC(=O)CC[C@H]1C(=O)N(CCc2ccc3ccccc3c2)CCN1C(=O)[C@H](N)Cc1ccc(Cl)cc1Cl [Example 50]")
0
>>> assay_value("NCCCNC(=O)[C@@H]1C[C@@H](OCc2ccccc2)CN1C(=O)[C@@H](Cc1ccccc1)NC(=O)[C@H](Cc1cnc[nH]1)NC(=O)CC1CCCCC1 [Example 142]")
3
>>> assay_value("NCCCC[C@H]1C(=O)N(CCc2ccccc2)CCN1C(=O)[C@@H](Cc1ccc(Cl)cc1)NC(=O)[C@@H]1Cc2ccccc2CN1 [Example 13]")
21

====

Each entry below carries its reported Inhibition at 1 μM MC4-R.
# Tested system: MC4-R (Homo sapiens)
# Sequence (P32245 whole entry): as above
# Test description: Competitive inhibition binding assay, 125I-NDP-α-MSH, MC4-R
# Parameters: expressed in transfected cells
# Conditions used: 1 μM compound; inhibition of 125I-NDP-α-MSH binding; mean of triplicates; results less than 0% reported as 0%
Measured quantity: Inhibition at 1 μM MC4-R (%)

>>> assay_value("NCCCC[C@H]1C(=O)N(CCc2ccc3ccccc3c2)CCN1C(=O)[C@@H](Cc1ccc(Cl)cc1Cl)NC(=O)[C@@H]1C[C@@H](OCc2ccccc2)CN1")
100
>>> assay_value("N=C(N)NCCC[C@H]1C(=O)N2C(CC[C@@H]2COc2ccc3ccccc3c2)N1C(=O)[C@@H](Cc1ccc(Cl)cc1Cl)NC(=O)[C@@H](N)COCc1ccccc1 (stereo partly drawn)")
100
>>> assay_value("NCCCC[C@H]1C(=O)N(CCc2ccc3ccccc3c2)CCN1C(=O)[C@@H](Cc1ccc(Cl)cc1Cl)NCc1ccc(-c2ccccc2)cc1")
85
>>> assay_value("N=C(N)NCCC[C@H]1C(=O)N(CCc2c[nH]c3ccccc23)CCN1C(=O)[C@@H](Cc1ccccc1Cl)NC(=O)[C@@H]1C[C@@H](OCc2ccccc2)CN1")
99
>>> assay_value("NCCCC[C@H]1C(=O)N2C(CC[C@@H]2COc2ccc3ccccc3c2)N1C(=O)[C@@H](Cc1ccccc1Cl)NC(=O)[C@H]1NCCc2ccccc21 (stereo partly drawn)")
57
>>> assay_value("CCCCCCC(=O)N[C@@H](Cc1cnc[nH]1)C(=O)N[C@H](Cc1ccccc1)C(=O)N1C[C@H](OCc2ccccc2)C[C@H]1C(=O)NCCCN")
0
